# target.system: Caspase-1 (Homo sapiens, UniProt P29466);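 also: Caspase-1 enzyme inhibition assay with a peptide substrate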; also: in other assays of this panel Not Active means under 50% inhibition at 10 µM
# Sequence (P29466 whole entry): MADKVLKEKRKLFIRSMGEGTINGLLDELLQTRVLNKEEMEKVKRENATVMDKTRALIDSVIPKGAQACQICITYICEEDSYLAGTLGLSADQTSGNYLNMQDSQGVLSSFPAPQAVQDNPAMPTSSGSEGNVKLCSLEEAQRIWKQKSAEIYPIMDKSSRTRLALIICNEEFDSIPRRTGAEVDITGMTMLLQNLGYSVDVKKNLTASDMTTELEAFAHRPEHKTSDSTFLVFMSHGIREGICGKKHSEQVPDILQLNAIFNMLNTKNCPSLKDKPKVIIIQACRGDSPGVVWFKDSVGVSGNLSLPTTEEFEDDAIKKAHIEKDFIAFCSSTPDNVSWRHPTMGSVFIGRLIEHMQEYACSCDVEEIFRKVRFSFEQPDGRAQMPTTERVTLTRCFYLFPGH
# Set-up: species or system Escherichia coli
quantity.measured: IC50

Cn1c(=O)c2c(ncn2CC2OCCO2)n(C)c1=O [DOXOFYLLINE] = Not Active
COCCCOc1ccnc(C[S+]([O-])c2nc3ccccc3[nH]2)c1C (centres undefined) [RABEPRAZOLE] = Not Active
CN(C)c1ccc(C(=C2C=CC(=[N+](C)C)C=C2)c2ccc(N(C)C)cc2)cc1.[Cl-] [GENTIAN VIOLET] = Not Active
ClC(Cl)Cl [CHLOROFORM] = Not Active
COc1cccc2c1C(=O)c1c(O)c3c(c(O)c1C2=O)C[C@@](O)(C(=O)CO)C[C@@H]3O[C@H]1C[C@H](N)[C@@H](O)[C@H](C)O1 [EPIRUBICIN] = Not Active
S=C=Nc1cccc2ccccc12 [1-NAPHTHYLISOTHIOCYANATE] = Not Active
C[C@H]1C[C@H]2[C@@H]3CCC4=CC(=O)C=C[C@]4(C)[C@@]3(Cl)[C@@H](O)C[C@]2(C)[C@@]1(O)C(=O)CO [BECLOMETHASONE] = Not Active
C[C@]12CC[C@@H]3c4ccc(OC(=O)c5ccccc5)cc4CC[C@H]3[C@@H]1CC[C@@H]2O [ESTRADIOL BENZOATE] = Not Active
Cc1ccccc1C(=O)N1CCC(Cc2ccccc2)CC1 = Not Active

The reported numbers originate from ChEMBL document CHEMBL1909046.
